# Target of assay: CDK12 (Homo sapiens)
# Sequence (Q9NYV4 whole entry): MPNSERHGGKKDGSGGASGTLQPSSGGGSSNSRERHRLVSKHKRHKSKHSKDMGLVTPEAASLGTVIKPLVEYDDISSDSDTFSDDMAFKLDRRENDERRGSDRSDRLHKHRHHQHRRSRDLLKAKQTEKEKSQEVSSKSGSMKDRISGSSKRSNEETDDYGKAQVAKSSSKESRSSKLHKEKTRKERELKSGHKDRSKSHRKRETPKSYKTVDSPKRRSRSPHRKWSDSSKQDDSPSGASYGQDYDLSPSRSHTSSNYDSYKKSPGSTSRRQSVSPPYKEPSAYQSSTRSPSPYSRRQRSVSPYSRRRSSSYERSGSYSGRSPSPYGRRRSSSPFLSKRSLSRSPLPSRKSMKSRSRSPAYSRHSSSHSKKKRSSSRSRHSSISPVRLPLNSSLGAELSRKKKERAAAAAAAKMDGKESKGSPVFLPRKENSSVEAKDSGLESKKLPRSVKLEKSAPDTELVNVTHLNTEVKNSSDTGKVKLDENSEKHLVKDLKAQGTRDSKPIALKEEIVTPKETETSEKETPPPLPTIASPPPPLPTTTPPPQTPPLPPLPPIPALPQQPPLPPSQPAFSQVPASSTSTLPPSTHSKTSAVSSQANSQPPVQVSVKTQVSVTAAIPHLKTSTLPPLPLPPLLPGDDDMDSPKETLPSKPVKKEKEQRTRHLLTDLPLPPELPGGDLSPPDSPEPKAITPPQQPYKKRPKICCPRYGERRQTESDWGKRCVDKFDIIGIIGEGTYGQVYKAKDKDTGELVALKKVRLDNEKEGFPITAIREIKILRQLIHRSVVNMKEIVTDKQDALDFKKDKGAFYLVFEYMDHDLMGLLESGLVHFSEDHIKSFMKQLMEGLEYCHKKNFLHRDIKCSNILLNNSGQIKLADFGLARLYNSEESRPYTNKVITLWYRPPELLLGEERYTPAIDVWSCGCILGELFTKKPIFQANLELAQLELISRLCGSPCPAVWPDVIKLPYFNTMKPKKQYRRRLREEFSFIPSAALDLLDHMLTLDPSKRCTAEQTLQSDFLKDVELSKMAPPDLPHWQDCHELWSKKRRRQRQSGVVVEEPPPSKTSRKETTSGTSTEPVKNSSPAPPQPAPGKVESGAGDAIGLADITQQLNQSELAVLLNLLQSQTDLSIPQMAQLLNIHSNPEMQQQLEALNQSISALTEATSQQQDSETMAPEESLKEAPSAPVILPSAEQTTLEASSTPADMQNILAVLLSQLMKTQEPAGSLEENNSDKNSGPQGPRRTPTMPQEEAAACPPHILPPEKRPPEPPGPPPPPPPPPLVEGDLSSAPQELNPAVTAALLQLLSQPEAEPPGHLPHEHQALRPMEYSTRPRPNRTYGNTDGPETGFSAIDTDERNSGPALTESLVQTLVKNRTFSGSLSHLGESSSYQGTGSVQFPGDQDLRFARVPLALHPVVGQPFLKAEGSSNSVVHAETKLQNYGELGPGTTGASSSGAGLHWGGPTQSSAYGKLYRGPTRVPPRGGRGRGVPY
# Sequence (O75909 whole entry partner): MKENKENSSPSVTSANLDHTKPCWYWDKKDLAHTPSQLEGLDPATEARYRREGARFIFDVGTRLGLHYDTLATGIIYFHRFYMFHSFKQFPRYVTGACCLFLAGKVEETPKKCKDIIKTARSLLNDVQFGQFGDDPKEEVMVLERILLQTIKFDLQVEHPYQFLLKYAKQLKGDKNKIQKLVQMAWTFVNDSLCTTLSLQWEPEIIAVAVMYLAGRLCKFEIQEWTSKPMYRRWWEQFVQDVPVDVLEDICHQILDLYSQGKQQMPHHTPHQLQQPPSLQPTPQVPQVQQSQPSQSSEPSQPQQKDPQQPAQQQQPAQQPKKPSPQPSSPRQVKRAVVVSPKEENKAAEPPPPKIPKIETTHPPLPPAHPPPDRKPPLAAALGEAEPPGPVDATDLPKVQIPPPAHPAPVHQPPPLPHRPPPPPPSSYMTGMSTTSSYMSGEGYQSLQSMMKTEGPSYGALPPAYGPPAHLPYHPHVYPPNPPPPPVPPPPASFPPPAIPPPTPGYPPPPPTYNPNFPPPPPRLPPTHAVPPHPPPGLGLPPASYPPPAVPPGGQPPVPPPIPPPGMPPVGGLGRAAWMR
# Protocol summary: SelectScreen kinase profiling
# Type: biochemical
# Experimental: The kinase selectivity analysis of LTM-1 was performed utilizing the SelectScreen Kinase Profiling Service offered by Thermo Fisher Scientific. In a dose-response assay featuring a ten-point dilution series from 0.25 μM to 128 μM, the inhibitory effects of LTM-1 on substrate phosphorylation reactions catalyzed by a panel of kinases were assessed. Consequently, the half-maximal inhibitory concentrations (IC50 values) for each kinase were determined.
Readout: IC50

CDK12 (Homo sapiens) / IC50 / O=S(=O)(c1ccc(C(O)CO)c(C(F)(F)F)c1)N1CCc2cc(C3CC3NCC3CCNCC3)ccc21 (stereo not shown) [LTM-1] : value?
> 10 µM

* * *

# Target of assay: CDK4 (Homo sapiens)
# Sequence (P11802 whole entry): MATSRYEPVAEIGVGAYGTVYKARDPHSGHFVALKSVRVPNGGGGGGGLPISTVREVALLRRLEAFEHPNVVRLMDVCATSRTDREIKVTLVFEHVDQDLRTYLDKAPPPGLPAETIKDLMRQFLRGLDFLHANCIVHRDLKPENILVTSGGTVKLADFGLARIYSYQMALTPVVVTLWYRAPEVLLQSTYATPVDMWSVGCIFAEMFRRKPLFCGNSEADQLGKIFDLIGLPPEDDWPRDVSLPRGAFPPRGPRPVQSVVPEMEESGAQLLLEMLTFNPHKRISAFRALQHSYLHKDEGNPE
# Sequence (P24385 whole entry partner): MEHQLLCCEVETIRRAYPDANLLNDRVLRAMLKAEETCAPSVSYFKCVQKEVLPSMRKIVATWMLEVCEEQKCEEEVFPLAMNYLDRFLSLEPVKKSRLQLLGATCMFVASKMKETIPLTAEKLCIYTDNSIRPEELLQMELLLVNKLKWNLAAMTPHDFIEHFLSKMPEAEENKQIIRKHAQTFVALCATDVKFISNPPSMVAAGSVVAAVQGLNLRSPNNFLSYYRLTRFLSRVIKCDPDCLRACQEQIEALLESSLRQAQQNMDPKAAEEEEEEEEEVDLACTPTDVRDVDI
Readout: IC50

CDK4 (Homo sapiens) / IC50 / O=S(=O)(c1ccc(C(O)CO)c(C(F)(F)F)c1)N1CCc2cc(C3CC3NCC3CCNCC3)ccc21 (stereo not shown) [LTM-1] : value?
> 10 µM

* * *

# Tested on: HL-60
# Protocol summary: MTS cell proliferation assay
# Assay type: cell-based
# Applied conditions: Homo sapiens, growth inhibition after 72 h
Readout: IC50 (µM)
Numbers only; they are read as µM.

If you can, please state the reported IC50 value of O=S(=O)(c1ccc(C(O)CO)c(C(F)(F)F)c1)N1CCc2cc(C3CC3NCC3CCNCC3)ccc21 (stereo not shown) .
0.39

* * *

# Target of assay: PLK2 (Homo sapiens, UniProt Q9NYY3)
# Sequence (Q9NYY3 whole entry): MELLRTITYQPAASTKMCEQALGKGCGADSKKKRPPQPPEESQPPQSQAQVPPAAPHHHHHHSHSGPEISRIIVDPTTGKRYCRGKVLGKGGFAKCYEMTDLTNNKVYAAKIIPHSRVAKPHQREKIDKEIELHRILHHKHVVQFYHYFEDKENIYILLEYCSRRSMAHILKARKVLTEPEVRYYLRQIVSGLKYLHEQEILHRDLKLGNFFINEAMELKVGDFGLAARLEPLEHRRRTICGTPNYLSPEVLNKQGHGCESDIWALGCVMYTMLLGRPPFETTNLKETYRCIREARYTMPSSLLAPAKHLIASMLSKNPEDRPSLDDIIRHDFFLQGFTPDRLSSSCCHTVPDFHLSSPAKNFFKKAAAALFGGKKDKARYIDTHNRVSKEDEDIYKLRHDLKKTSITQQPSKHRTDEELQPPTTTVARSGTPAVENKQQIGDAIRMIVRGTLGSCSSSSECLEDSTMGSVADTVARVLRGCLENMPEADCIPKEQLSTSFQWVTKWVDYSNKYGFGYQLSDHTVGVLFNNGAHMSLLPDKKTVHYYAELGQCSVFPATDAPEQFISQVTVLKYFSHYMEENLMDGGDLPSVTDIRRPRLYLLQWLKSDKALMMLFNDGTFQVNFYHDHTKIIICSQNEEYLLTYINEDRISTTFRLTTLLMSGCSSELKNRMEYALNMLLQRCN
pIC50: −log10 of the molar value.
Readout: pIC50

If you can, please state the reported pIC50 value of O=S(=O)(c1ccc(C(O)CO)c(C(F)(F)F)c1)N1CCc2cc(C3CC3NCC3CCNCC3)ccc21 (stereo not shown) .
< 5.00

* * *

# Target of assay: UniProt:P21802
pIC50: −log10 of the molar value.
Readout: pIC50

UniProt:P21802 / pIC50 / O=S(=O)(c1ccc(C(O)CO)c(C(F)(F)F)c1)N1CCc2cc(C3CC3NCC3CCNCC3)ccc21 (stereo not shown) : value?
< 5.00

* * *

# Target of assay: PDGFRB (Homo sapiens)
# Sequence (P09619 33-1106): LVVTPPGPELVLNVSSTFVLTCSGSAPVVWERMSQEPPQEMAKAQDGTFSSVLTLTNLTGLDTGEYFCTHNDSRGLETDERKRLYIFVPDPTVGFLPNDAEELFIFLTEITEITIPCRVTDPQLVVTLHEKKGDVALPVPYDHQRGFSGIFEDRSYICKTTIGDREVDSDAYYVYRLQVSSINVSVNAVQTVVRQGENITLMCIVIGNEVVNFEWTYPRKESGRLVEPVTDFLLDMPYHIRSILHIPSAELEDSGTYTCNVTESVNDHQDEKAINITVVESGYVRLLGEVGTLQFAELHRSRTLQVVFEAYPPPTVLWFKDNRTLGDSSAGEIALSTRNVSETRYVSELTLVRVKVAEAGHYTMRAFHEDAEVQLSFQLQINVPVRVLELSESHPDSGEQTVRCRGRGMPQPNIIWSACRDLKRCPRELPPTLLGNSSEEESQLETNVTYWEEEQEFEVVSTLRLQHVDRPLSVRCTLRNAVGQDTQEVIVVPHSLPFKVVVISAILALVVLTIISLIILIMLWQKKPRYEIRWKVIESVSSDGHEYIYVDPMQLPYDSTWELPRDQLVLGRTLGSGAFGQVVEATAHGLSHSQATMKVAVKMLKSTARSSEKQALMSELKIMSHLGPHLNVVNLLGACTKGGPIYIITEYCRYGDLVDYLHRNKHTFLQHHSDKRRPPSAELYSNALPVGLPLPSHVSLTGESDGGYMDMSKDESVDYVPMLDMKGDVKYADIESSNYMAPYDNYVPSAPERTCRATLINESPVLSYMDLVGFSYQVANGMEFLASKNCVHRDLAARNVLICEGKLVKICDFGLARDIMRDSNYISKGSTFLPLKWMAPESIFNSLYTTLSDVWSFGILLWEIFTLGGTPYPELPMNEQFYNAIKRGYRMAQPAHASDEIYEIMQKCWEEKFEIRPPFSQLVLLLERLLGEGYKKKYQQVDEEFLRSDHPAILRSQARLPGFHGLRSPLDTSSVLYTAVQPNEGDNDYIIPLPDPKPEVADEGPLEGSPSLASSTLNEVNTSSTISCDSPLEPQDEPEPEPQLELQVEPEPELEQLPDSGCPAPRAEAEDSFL
pIC50: −log10 of the molar value.
Readout: pIC50

If you can, please state the reported pIC50 value of O=S(=O)(c1ccc(C(O)CO)c(C(F)(F)F)c1)N1CCc2cc(C3CC3NCC3CCNCC3)ccc21 (stereo not shown) [LTM-1] .
< 5.00

* * *

# Target of assay: CDK6 (Homo sapiens, UniProt Q00534)
# Sequence (Q00534 whole entry): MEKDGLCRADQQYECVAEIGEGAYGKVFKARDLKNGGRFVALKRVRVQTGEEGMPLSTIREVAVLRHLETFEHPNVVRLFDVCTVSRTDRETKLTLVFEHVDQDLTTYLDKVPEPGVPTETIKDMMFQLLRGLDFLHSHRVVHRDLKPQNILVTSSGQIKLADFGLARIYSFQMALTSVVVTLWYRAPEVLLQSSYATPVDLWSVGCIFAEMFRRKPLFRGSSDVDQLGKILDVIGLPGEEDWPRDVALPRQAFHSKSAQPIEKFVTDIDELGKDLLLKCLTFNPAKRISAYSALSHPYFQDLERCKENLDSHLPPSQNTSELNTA
# Sequence (P24385 whole entry partner): as the sequence (P24385 whole entry partner) above
Readout: IC50

If you can, please state the reported IC50 value of O=S(=O)(c1ccc(C(O)CO)c(C(F)(F)F)c1)N1CCc2cc(C3CC3NCC3CCNCC3)ccc21 (stereo not shown) [LTM-1] .
> 10 µM

* * *

# Target of assay: KIT (Homo sapiens)
Readout: IC50

If you can, please state the reported IC50 value of O=S(=O)(c1ccc(C(O)CO)c(C(F)(F)F)c1)N1CCc2cc(C3CC3NCC3CCNCC3)ccc21 (stereo not shown) .
> 10 µM

* * *

Reported pIC50 values for a set of molecules
# Target of assay: LSD2 (Homo sapiens)
# Sequence (Q8NB78 1-822): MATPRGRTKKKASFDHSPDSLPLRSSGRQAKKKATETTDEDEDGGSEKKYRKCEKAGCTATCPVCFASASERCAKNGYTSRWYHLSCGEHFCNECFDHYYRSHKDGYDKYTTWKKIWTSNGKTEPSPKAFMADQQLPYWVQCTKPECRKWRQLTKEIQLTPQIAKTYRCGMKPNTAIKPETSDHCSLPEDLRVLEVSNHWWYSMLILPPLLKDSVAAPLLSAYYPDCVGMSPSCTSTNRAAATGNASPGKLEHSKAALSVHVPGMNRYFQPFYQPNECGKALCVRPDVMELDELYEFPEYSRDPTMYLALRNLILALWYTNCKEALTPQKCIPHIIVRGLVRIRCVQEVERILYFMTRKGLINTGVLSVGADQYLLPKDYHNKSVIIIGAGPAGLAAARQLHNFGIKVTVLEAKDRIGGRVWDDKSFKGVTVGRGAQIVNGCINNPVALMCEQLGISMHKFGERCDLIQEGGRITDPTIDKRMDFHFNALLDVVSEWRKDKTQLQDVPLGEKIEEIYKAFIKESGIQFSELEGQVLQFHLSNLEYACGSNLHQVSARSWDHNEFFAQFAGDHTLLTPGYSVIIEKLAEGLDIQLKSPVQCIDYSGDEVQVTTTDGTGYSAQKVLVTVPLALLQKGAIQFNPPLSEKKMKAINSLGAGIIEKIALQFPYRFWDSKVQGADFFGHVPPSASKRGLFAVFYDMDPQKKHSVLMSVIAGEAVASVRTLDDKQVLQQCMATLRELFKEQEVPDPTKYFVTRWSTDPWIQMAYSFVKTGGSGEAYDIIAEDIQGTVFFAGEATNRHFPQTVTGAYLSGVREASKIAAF
# pIC50 = -log10(concentration in molar units)

Known results for molecules:
[[record]]
molecule = "O=S(=O)(c1ccc(CO)c(Cl)c1)N1CCc2cc(C3CC3NCC3CCNCC3)ccc21 (stereo not shown)"
result_number = 5.52

[[record]]
molecule = "O=S(=O)(c1cccc(CC2CC2)c1)N1CCc2cc(C3CC3NCC3CCNCC3)ccc21 (stereo not shown)"
result_number = 6.17


If you can, please state the reported pIC50 value of O=C(O)c1ccc(CN2CCC(CN[C@@H]3C[C@H]3c3ccccc3)CC2)cc1 [GSK2879552, reference compound] .
6.98
